# log10 of IC50 listing for each entry below
Molecular target: C5AR1 (Homo sapiens)
Construct: host or cells: CHO-K1
Assay: hC5a DISCO IC50 assay (PathHunter beta-arrestin, antagonist mode)
Assay type: cell-based
Details: CHO-K1 C5AR1 beta-arrestin cell line; antagonist vs 1-10 nM C5a agonist; geometric mean values; read-out: C5aR IC50
Friendly reminder: values = log10 of IC50, unit nM.

molecule=COc1cccc2c1n(Cc1ncccc1OC(C)C)c(=O)n2[C@@H]1CCN(c2c(C)cccc2F)C1 system_under_test="C5AR1 (Homo sapiens)" reported_endpoint="log10 of IC50" readout_number=0.95

Dear colleague, I am looking for the recorded log10 of IC50 of the following molecule: `COc1nccc(C)c1N1CC[C@@H](n2c(=O)n(Cc3ccccc3C(F)(F)F)c3c(OC)nccc32)C1`
1.98

Dear colleague, I am looking for the recorded log10 of IC50 of the following molecule: COc1cccc2c1n(Cc1ccccc1C(F)(F)F)c(=O)n2[C@@H]1CCN(c2c(F)cccc2C(C)OC)C1 (stereo partly shown)
1.45

----------
Target: UniProtKB P21730
Assay: hC5a DISCO IC50 assay (PathHunter beta-arrestin, antagonist mode)
Conditions: CHO-K1 C5AR1 beta-arrestin cell line; antagonist vs 1-10 nM C5a agonist; geometric mean values; read-out: C5aR IC50
reported-endpoint: IC50 (nM)
Value expressed in nM; do not type the unit.

compound="COc1cccc2c1n(Cc1ccccc1C(F)(F)F)c(=O)n2C1C2CC1CN(c1c(C)cccc1F)C2 (stereo not shown)" system_under_test="UniProtKB P21730" readout_number=74

Dear colleague, I am looking for the recorded IC50 of the following compound: `COc1cccc2c1n(Cc1nnccc1OC(C)C)c(=O)n2[C@@H]1CCN(c2c(C)cccc2F)C1`
107

Dear colleague, I am looking for the recorded IC50 of the following compound: `COc1cccc2c1n(Cc1ccccc1C(F)(F)F)c(=O)n2[C@@H]1CCN(C(=O)OC(C)(C)C)C1`
66

Dear colleague, I am looking for the recorded IC50 of the following compound: `COc1nccc2c1n(Cc1ccccc1C(F)(F)F)c(=O)n2[C@@H]1CCN(c2c(F)cccc2F)C1`
75

Dear colleague, I am looking for the recorded IC50 of the following compound: COCC(C)NCc1cccc(F)c1N1CC[C@@H](n2c(=O)n(Cc3ccccc3C(F)(F)F)c3c(OC)cccc32)C1 (stereo partly shown)
108

Dear colleague, I am looking for the recorded IC50 of the following compound: `COc1cccc2c1n(Cc1ccccc1C1CC1)c(=O)n2C1CCN(c2c(C)cccc2F)CC1`
130

Dear colleague, I am looking for the recorded IC50 of the following compound: `COc1ccccc1Cn1c(=O)n([C@@H]2CCN(c3c(F)cccc3F)C2)c2cccc(OC)c21`
84

----------
Target: C5AR1 (Homo sapiens, UniProt P21730)
Sequence (P21730 whole entry): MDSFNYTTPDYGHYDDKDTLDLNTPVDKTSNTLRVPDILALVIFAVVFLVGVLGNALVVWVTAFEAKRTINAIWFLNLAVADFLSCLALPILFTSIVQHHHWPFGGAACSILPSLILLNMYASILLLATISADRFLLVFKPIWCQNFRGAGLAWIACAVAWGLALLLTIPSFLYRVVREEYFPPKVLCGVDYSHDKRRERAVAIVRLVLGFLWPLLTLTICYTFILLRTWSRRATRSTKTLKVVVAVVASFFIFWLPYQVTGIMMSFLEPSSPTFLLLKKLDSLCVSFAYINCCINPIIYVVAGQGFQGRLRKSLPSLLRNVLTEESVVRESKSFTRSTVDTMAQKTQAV
Experiment: hC5a DISCO IC50 assay (PathHunter beta-arrestin, antagonist mode)
Conditions: CHO-K1 C5AR1 beta-arrestin cell line; antagonist vs 1-10 nM C5a agonist; geometric mean values; read-out: C5aR IC50
# IC50 listing for each entry below
Value expressed in nM; do not type the unit.

Below are worked cases with known answers.
compound="N#Cc1cccc(F)c1N1CC[C@@H](n2c(=O)n(Cc3ccccc3C(F)(F)F)c3c(C(N)=O)cccc32)C1 [Example 100]" system_under_test="C5AR1 (Homo sapiens, UniProt P21730)" reported_endpoint=IC50 readout_number=1430
compound="COc1cccc2c1n([C@@H](C)c1ccccc1C(F)(F)F)c(=O)n2C1CCN(c2c(C)cccc2F)C1 (stereo partly shown) [Example 219]" system_under_test="C5AR1 (Homo sapiens, UniProt P21730)" reported_endpoint=IC50 readout_number=34
compound="Cc1cccc(F)c1N1CC[C@@H](n2c(=O)n(Cc3ccccc3C(F)(F)F)c3c(OC4COC4)cccc32)C1 [Example 149]" system_under_test="C5AR1 (Homo sapiens, UniProt P21730)" reported_endpoint=IC50 readout_number=14

For the next question, use this compound.
Dear colleague, I am looking for the recorded IC50 of the following compound: COCCNC(=O)c1cccc2c1n(Cc1ccccc1C(F)(F)F)c(=O)n2[C@@H]1CCN(c2c(F)cccc2C#N)C1 [Example 194]
1480
